The entries below are paired with their reported fraction unbound.
- assay_explanation: Plasma protein binding
- Type: in vitro ADME, human
- experimental_setup: human, plasma; read-out: Plasma protein binding (fraction bound) (converted)
Keep the answer to the number alone.

Nc1nc(O[C@H](c2ccc(Cl)cc2-c2ccccc2)C(F)(F)F)cc(N2CCC3(CC2)CN[C@H](C(=O)O)C3)n1 [Rodatristat]    0.009

The reported value for CCOC(=O)[C@@H]1CC2(CCN(c3cc(O[C@H](c4ccc(Cl)cc4-c4ccccc4)C(F)(F)F)nc(N)n3)CC2)CN1 [Rodatristat ethyl] in terms of fraction unbound is 0.005

---

- target_under_test: CYP3A4/5 (Homo sapiens)
- Sequence (P08684 2-503): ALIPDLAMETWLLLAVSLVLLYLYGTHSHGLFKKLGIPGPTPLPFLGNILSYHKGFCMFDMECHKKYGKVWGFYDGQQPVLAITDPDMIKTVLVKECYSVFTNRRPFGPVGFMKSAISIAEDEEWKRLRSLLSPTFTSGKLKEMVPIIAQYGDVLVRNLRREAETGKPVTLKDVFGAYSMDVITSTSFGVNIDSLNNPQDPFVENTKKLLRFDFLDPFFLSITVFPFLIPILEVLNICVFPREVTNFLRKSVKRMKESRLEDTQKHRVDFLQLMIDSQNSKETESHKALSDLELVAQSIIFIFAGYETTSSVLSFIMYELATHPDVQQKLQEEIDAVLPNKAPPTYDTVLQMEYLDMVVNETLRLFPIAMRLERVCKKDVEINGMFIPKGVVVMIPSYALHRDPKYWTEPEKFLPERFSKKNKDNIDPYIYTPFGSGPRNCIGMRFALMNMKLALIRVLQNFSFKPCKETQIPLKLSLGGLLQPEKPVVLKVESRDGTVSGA
- assay_explanation: Direct and time-dependent CYP inhibition, pooled human liver microsomes
- Format: in vitro ADME
- experimental_setup: human, pooled human liver microsomes, probe testosterone (6β hydroxylation); testosterone 6β hydroxylation; read-out: In vitro IC50, direct inhibition, CYP3A4 (T)
measurement_label: IC50 (µM)
Report the figure in µM without appending any unit label.

Note to self: IC50 of CCOC(=O)[C@@H]1CC2(CCN(c3cc(O[C@H](c4ccc(Cl)cc4-c4ccccc4)C(F)(F)F)nc(N)n3)CC2)CN1 [Rodatristat ethyl] with CYP3A4/5 (Homo sapiens) was 23

---

- target_under_test: CYP2C9 (Homo sapiens)
- Sequence (P11712 whole entry): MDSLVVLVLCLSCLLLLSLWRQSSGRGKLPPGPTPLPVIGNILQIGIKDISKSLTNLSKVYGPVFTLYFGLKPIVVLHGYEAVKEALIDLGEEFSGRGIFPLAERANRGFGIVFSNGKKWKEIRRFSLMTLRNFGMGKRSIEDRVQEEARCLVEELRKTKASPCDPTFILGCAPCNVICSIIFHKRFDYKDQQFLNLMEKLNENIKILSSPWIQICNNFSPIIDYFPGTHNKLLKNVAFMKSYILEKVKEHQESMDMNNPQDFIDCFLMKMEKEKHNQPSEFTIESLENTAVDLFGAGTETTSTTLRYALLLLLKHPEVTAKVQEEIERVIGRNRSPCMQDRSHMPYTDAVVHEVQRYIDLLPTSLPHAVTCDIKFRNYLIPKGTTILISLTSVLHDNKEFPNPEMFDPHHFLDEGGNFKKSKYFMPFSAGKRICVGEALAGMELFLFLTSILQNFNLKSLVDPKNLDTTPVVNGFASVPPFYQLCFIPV
- assay_explanation: Direct and time-dependent CYP inhibition, pooled human liver microsomes
- Format: in vitro ADME
- Set-up: from tissue; host or cells: pooled human liver microsomes (n=200 donors)
- experimental_setup: human, pooled human liver microsomes; 30 μM; range given across CYPs 2B6, 2C9 and 3A4/5
measurement_label: inhibition at 30 µM

The reported value for Nc1nc(O[C@H](c2ccc(Cl)cc2-c2ccccc2)C(F)(F)F)cc(N2CCC3(CC2)CN[C@H](C(=O)O)C3)n1 in terms of inhibition at 30 µM is 27 to 45%

---

- target_under_test: CYP1A2 (Homo sapiens, UniProt P05177)
- Sequence (P05177 1-516): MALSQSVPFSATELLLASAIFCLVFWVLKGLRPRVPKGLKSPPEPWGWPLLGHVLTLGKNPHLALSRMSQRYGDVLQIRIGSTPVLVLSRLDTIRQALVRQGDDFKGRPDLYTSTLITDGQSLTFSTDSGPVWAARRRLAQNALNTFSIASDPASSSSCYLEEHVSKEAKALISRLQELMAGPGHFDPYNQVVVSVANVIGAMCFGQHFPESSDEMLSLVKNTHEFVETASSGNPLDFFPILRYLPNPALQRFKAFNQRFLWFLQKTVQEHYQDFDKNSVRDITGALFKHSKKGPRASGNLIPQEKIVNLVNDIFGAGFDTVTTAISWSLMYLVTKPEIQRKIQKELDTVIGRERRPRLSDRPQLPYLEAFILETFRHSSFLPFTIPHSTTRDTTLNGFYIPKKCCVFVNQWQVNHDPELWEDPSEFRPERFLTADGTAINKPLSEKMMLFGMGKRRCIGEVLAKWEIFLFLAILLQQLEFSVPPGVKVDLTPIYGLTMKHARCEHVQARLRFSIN
- assay_explanation: Direct and time-dependent CYP inhibition, pooled human liver microsomes
- Type: in vitro ADME
- Set-up: from tissue; host or cells: pooled human liver microsomes (n=200 donors)
- experimental_setup: human liver microsomes; read-out: In vitro IC50, direct inhibition, CYP1A2
measurement_label: IC50

The reported value for CCOC(=O)[C@@H]1CC2(CCN(c3cc(O[C@H](c4ccc(Cl)cc4-c4ccccc4)C(F)(F)F)nc(N)n3)CC2)CN1 [Rodatristat ethyl] in terms of IC50 is > 30 µM
